Molecular target: Prolyl 4-hydroxylase subunit alpha-1 (Rattus norvegicus, UniProt P54001)
Sequence (P54001 whole entry): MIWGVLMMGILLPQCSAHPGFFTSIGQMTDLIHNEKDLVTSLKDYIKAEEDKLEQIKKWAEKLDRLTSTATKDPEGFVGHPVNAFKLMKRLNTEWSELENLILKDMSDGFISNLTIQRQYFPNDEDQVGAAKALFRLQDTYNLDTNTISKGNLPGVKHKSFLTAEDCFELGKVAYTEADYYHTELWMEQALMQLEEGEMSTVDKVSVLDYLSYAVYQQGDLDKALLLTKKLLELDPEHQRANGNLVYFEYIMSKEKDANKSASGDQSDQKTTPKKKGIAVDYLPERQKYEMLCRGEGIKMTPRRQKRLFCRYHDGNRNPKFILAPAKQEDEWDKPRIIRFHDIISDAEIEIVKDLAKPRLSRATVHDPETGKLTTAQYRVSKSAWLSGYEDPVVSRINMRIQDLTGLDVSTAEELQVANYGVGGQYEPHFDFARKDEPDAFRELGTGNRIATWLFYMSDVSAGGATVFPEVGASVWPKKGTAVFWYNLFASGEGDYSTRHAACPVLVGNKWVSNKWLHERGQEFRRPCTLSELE
Assay: Inhibitory activity against prolyl 4-hydroxylase
experimental.endpoint: Ki
Number plus unit, in that order.

Item O=C(O)c1ccc(C(=O)O)nc1 [PYRIDINE-2,5-DICARBOXYLIC ACID] has what recorded Ki? 800 nM

---

Recorded inhibition for the following compounds
Molecular target: Prolyl 4-hydroxylase subunit alpha-1 (Rattus norvegicus)
Assay: Compound was evaluated for the inhibition of prolyl 4-hydroxylase at 50 ug/mL
Just the number please, in %, no unit attached.

Worked set:
> print(dat)
                                   compound  experimental.endpoint  test.result
1      O=C(CNC(=O)C(=O)O)NS(=O)(=O)c1ccccc1             inhibition           34
2          CCOc1ccc(NC(=O)CNC(=O)C(=O)O)cc1             inhibition           16
3  CC(C)CC(NC(=O)C(=O)O)C(=O)O (configuration not stated)             inhibition           16
4  O=C(O)C(=O)N1CCCC1C(=O)O (configuration not stated)             inhibition           10
5                    CN(CC(=O)O)C(=O)C(=O)O             inhibition           10
6                 CC(C)(NC(=O)C(=O)O)C(=O)O             inhibition           26

Item O=C(O)C(=O)NC(Cc1ccccc1)C(=O)O (configuration not stated) has what recorded inhibition? 18

---

Biological target: Prolyl 4-hydroxylase subunit alpha-1 (Rattus norvegicus, UniProt P54001)
Assay: Compound was evaluated for the inhibition of prolyl 4-hydroxylase
experimental.endpoint: pKi
Formally, pKi is defined as -log10 of the concentration c, with c in mol/L.

Item O=C(O)CNC(=O)C(=O)O [N-OXALYLGLYCINE] has what recorded pKi? 6.27
